Would you kindly list neutralization IC50 for each of these binders?
# tgt: HIV-1 Env of MB539.2B7 (HIV-1)
# protocol text: cell-based or functional assay

In: Retrieve neutralization IC50 measured for CAP256-VRC26.11 (antibody, V domains shown) VH: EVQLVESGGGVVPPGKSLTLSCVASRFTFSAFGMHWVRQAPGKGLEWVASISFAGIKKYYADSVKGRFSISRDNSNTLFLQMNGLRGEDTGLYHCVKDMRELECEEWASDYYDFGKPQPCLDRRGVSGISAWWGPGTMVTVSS VL: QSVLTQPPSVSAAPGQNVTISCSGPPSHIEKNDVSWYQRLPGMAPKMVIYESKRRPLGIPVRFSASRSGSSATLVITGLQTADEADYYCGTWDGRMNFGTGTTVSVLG and print it.
Out: > 50 µg/mL

In: Answer with reported neutralization IC50 of CAP256-VRC26.10 (antibody, V domains shown) VH: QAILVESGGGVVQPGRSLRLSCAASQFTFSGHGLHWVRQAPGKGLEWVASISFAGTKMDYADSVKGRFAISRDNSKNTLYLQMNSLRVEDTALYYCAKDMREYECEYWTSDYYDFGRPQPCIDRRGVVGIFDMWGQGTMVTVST VL: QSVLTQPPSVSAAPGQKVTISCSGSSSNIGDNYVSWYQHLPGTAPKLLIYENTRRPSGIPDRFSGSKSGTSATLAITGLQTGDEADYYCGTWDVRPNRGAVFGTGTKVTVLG
Out: > 50 µg/mL

In: Find the measured neutralization IC50 of CAP256-VRC26.06 (antibody, V domains shown) VH: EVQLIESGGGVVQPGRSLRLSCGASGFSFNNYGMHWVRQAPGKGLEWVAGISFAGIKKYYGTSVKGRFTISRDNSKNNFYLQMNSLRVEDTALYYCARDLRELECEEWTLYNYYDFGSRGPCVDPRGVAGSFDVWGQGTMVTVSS VL: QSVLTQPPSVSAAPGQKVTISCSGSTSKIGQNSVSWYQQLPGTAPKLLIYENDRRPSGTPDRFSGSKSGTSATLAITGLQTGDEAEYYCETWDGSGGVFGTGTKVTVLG and report it.
Out: > 50 µg/mL

In: Give the reported neutralization IC50 for this binder. CAP256-VRC26.09 (antibody, V domains shown) VH: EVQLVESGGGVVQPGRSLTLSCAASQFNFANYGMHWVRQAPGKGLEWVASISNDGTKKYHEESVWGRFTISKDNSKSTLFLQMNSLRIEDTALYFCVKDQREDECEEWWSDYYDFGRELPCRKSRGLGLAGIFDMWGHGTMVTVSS VL: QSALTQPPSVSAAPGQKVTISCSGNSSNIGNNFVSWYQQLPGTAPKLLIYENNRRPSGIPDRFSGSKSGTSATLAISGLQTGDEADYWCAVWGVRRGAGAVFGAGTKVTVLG
Out: 40.7 µg/mL

In: State its neutralization IC50: CAP256-VRC26.12 (antibody, V domains shown) VH: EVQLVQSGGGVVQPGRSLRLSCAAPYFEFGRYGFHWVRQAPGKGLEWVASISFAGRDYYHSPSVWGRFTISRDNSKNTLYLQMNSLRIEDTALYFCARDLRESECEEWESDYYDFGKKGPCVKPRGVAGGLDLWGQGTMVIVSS VL: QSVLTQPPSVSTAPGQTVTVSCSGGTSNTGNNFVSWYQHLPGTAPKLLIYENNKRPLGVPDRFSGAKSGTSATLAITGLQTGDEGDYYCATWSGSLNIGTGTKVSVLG
Out: > 50 µg/mL

In: Supply neutralization IC50 value. Item: CAP256-VRC26.03 (antibody, V domains shown) VH: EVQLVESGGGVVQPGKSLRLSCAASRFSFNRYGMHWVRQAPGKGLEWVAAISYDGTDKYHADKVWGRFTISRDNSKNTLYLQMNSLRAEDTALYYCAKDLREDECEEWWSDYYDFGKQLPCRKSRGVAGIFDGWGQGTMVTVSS VL: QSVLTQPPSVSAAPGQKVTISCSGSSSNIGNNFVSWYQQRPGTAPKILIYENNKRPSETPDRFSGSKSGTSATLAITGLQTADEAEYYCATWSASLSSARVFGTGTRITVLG
Out: > 50 µg/mL

Cited source for all entries: patent US20200199204A1
